Quick note: these are Ki numbers for system: CB1-receptor (Homo sapiens)
Sequence (P21554 whole entry): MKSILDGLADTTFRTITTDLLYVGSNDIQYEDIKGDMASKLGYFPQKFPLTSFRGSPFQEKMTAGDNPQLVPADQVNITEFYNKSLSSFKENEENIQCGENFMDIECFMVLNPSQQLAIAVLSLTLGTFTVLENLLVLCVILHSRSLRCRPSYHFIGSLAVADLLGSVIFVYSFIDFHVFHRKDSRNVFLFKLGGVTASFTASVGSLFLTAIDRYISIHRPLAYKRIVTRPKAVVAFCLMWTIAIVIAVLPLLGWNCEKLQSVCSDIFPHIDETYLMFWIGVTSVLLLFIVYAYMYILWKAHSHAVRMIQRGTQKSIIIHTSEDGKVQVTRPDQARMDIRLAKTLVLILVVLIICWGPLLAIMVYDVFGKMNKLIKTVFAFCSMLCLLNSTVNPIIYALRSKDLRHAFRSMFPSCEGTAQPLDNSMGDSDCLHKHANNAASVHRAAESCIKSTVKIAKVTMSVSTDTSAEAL
observation_type: Ki (nM)

| compound | observation_type | units_label | data_value |
| --- | --- | --- | --- |
| C=C(C)[C@@H]1CCC(C)=C[C@H]1c1c(O)cc(CCC)c(C(=O)OC2CCCCC2)c1O [CHCBDV (8), cyclohexyl cannabidivarinolate] | Ki | nM | 13.2 |
| C=C(C)[C@@H]1CCC(C)=C[C@H]1c1c(O)cc(CCCCC)c(C(=O)OCCNS(C)(=O)=O)c1O | Ki | nM | 270 |
| C=C(C)[C@@H]1CCC(C)=C[C@H]1c1c(O)cc(CCC)c(C(=O)OCCO)c1O [2-HECBDV (7), 2-hydroxyethyl cannabidivarinolate] | Ki | nM | 5650 |
| C=C(C)[C@@H]1CCC(C)=C[C@H]1c1c(O)cc(CCCCC)c(C(=O)OC2CCCCC2)c1O [CHC (4), cyclohexyl cannabidiolate] | Ki | nM | 870 |
| C=C(C)[C@@H]1CCC(C)=C[C@H]1c1c(O)cc(CCC)c(C(=O)OCCCCCC)c1O [HCBDV (9), n-hexyl cannabidivarinolate] | Ki | nM | 8.3 |
| C=C(C)[C@@H]1CCC(C)=C[C@H]1c1c(O)cc(CCCCC)c(C(=O)OCCCCCC)c1O [HC (5), n-hexyl-cannabidiolate] | Ki | nM | 2500 |

###

# tested_target: CB2-receptor (Homo sapiens)
# Construct: expressed in transfected cells; host or cells: CHO cells, stably transfected with CB2 cDNA (from IMIBIC) and transiently with CRE-luc
# Sequence (P34972 whole entry): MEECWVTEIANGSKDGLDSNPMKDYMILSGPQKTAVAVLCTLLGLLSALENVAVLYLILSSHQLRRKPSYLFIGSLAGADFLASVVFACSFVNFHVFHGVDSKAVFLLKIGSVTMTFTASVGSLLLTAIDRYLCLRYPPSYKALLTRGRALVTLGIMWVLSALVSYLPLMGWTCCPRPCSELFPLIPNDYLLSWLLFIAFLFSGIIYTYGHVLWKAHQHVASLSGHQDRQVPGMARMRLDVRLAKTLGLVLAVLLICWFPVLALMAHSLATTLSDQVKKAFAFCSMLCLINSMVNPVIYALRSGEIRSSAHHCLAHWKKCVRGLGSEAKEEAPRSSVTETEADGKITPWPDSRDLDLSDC
# protocol_summary: cAMP-dependent luciferase assay in CHO-CB2-CRE-luc cells
# Type: cell-based
# assay_conditions: CHO-CB2-CRE-luc, summary classification
observation_type: Effect on CB2

| compound | data_value |
| --- | --- |
| C=C(C)[C@@H]1CCC(C)=C[C@H]1c1c(O)cc(CCC)c(C(=O)OC2CCCCC2)c1O [CHCBDV (8), cyclohexyl cannabidivarinolate] | Agonist |
| C=C(C)[C@@H]1CCC(C)=C[C@H]1c1c(O)cc(CCCCC)c(C(=O)OCCO)c1O [2-HEC (1), 2-hydroxyethyl cannabidiolate] | Agonist |
